Measured TGI accompanies every entry in the list below.
Test system: NCI-H226 lung
ASSAY COMMENT: NCI tumour cell line growth inhibition, 48 h
ENDPOINT LABEL: TGI

MOLECULE	ENDPOINT LABEL	REPORTED
C#C[C@@H](OC(=O)c1ccc([N+](=O)[O-])cc1)[C@@H]1C[C@H]2O[C@@H]([C@H](C/C=C/CC)OC(=O)c3ccc([N+](=O)[O-])cc3)C[C@H]2O1	TGI	> 100 µM
COc1ccc(-c2cncn2-c2ccc(-c3nc4cc(OC)c(OC)c(OC)c4s3)cc2)cc1N	TGI	> 100 µM
CC/C(=N/O)C(C)C(=O)CCC(=O)Nc1ccc(Cl)cc1 (centres undefined)	TGI	> 100 µM
C=CC(=O)OCCCS(=O)(=O)[O-].C=CC(=O)OCCCS(=O)(=O)[O-].NC1CCCCC1N.[Pt+4]	TGI	> 25 µM

----------
Test system: RPMI-8226 leukemia
ASSAY COMMENT: NCI tumour cell line growth inhibition, 48 h
ENDPOINT LABEL: TGI

COMPOUND	ENDPOINT LABEL	REPORTED
CS(=O)(=O)Nc1cccc(-c2ccc3ncnc(Nc4cncc(Cl)c4)c3c2)c1	TGI	6.77 µM
C=CCC(O)c1cc(OC)ccc1OC (stereo unspecified)	TGI	> 100 µM
NC(=O)/C=C/c1c[nH]c2nccnc12	TGI	> 100 µM
CN(C)CCSC(=Nc1ccccc1)n1cccc1	TGI	> 100 µM
Nc1ccccc1-n1c2c(c3ccccc3c1=O)C(=O)c1ccccc1-2	TGI	> 100 µM
CNc1ccc(Cl)cc1C(=O)N1CCC[C@H]1CO	TGI	> 100 µM

----------
Measured GI50 accompanies every entry in the list below.
Test system: SN12C renal
ASSAY COMMENT: NCI tumour cell line growth inhibition, 48 h

COMPOUND	GI50
O=C1c2ccccc2-c2c1c1ccc([N+](=O)[O-])cc1c(=O)n2CCN1CCOCC1	59.3 µM
Fc1cccc(-c2nc(-c3c[nH]c4ncccc34)cs2)c1	> 100 µM
CCSc1nnc(-c2ccc3ccccc3c2O)n1-c1ccccc1	> 100 µM
COc1ccc(/C=N/C2=NNC(C)(c3ccccc3O)N2C(Cc2c[nH]c3ccccc23)C(=O)O)cc1 (stereo not given)	3.11 µM
Cc1ccc(Nn2c(SCC(=O)Nc3nc(-c4ccccc4)cs3)nc(C)c2C)cc1	3.2 µM

----------
Measured TGI accompanies every entry in the list below.
System: SK-MEL-2 melanoma
ASSAY COMMENT: NCI tumour cell line growth inhibition, 48 h

MOLECULE	TGI
O=C1/C(=C/c2ccc([N+](=O)[O-])cc2)Sc2scc(-c3cccc([N+](=O)[O-])c3)[n+]21	30.8 µM
CCCCCCCCCCCCCCCCCCOC(COP(=O)(O)OCC1OC(n2cc(F)c(=O)[nH]c2=O)CC1O)COP(=O)(O)OCC1OC(n2ccc(N)nc2=O)C(O)C1O (centres undefined)	> 100 µM
OC1CCSc2ccccc21 (centres undefined)	> 100 µM
C=CC(=O)OCCCS(=O)(=O)[O-].C=CC(=O)OCCCS(=O)(=O)[O-].NC1CCCCC1N.[Pt+4]	> 25 µM
Nc1n[nH]c2cc(F)c([C@@H]3Nc4c(F)cc5[nH]ncc5c4[C@H]4C5CCC(C5)[C@@H]34)cc12 (some centres undefined)	9.37 µM
O=c1oc2ccccc2c(O)c1Cc1ccccc1Cc1c(O)c2ccccc2oc1=O	> 100 µM
O=C(O)c1ccc(C2=Nc3cccc4cccc(c34)N2)cc1	> 100 µM
O=S(=O)(N1CCCCN(S(=O)(=O)C(F)(F)F)CCCN(S(=O)(=O)C(F)(F)F)CCCCN(S(=O)(=O)C(F)(F)F)CCCN(S(=O)(=O)C(F)(F)F)CCCCN(S(=O)(=O)C(F)(F)F)CCCN(S(=O)(=O)C(F)(F)F)CCCCN(S(=O)(=O)C(F)(F)F)CCC1)C(F)(F)F	> 100 µM
CNc1cc(Cl)ccc1C(=O)N1CCC[C@H]1CO	> 100 µM
O=C(Cc1ccccc1)Nc1nc2ccc(Cl)cc2c2nc(-c3ccco3)nn12	> 100 µM
O=C(O)c1ccc2[nH]c(=O)oc2c1	> 100 µM
COC(=O)[C@]12CC[C@@H](C)[C@H](C)[C@@H]1C1=CC[C@@H]3[C@@]4(C)C(C=O)=C[C@@](C)(COC(=O)c5ccco5)C4=CC[C@@]3(C)[C@]1(C)CC2	0.743 µM
CC(=O)OCCC/C(=C/c1cc2ccccc2c2ccccc12)[N+](=O)[O-]	2.98 µM
Fc1cccc(-c2nc(-c3c[nH]c4ncccc34)cs2)c1	> 100 µM
CC12OC(C(=O)C13CCC3)C1C(=O)c3c(O)ccc(O)c3C(=O)C12 (centres undefined)	> 100 µM
COC(=O)C(Cc1ccccc1)NP(=O)(O)OCC1OC(n2ccc(N)nc2=O)C(O)C1O (centres undefined)	> 100 µM
Fc1c(F)c(F)c(CSc2nc3ccccc3[nH]2)c(F)c1F	> 100 µM
N#CC(C#N)[C@@H]1CCC=C(Sc2ccccc2)[C@H]1Sc1ccccc1	12.2 µM
C=CCc1cccc(/C(O)=C/C(=O)/C=C/c2ccccc2Cl)c1O	26.2 µM
NC1=C(/C(N)=N/O)C(c2ccccc2)c2ccc3ccccc3c2O1 (centres undefined)	> 100 µM
CN(CCN1C(=O)c2cccc3cccc(c23)C1=O)CCN1C(=O)c2cccc3cccc(c23)C1=O	> 100 µM
O=C(C[n+]1ccn(CC(OCc2ccc(Cl)cc2Cl)c2ccc(Cl)cc2Cl)c1)c1ccc(F)cc1 (centres undefined)	3.11 µM
CC1=C(C(=O)NCc2ccccc2)C(c2ccc(N(C)C)cc2)C(C(=O)NCc2ccccc2)=C(C)N1	> 100 µM
Cc1ccc([N+](=O)[O-])cc1S(=O)(=O)Nc1ccc(C2=NN(C(=O)c3ccccc3)C(c3ccccc3O)C2)cc1 (centres undefined)	46.4 µM
NCCNc1nc2ccc(F)cc2c2c(=O)c3cc(F)ccc3sc12	4.28 µM
O=C1c2ccccc2-c2c1c1ccc3ccccc3c1n2-c1ccccc1	> 100 µM
O=C(c1nc2ccc(Cl)cc2[nH]c1=O)C(O)c1cccc([N+](=O)[O-])c1 (centres undefined)	> 100 µM
O=C1/C(=C\c2cccc(Oc3ccccc3)c2)SC(c2ccccc2)N1Cc1ccccc1 (centres undefined)	45.7 µM
Cc1nc2sc(C(=O)Nc3cccc(Cl)c3C)c(N)c2cc1C(O)c1ccccc1 (centres undefined)	12.6 µM

The reported measurements were obtained from PubChem BioAssay (NCI).
